Test system: PEPT1
EXPERIMENTAL_PROTOCOL: Ratio of Km for human recombinant PEPT1 expressed in Pichia pastoris GS115 to Km for mouse recombinant PEPT1 expressed in Pichia pastoris GS115
Format: ADME
MEASUREMENT_CONDITIONS: not told
Non-standard residues stand in square brackets, D forms with d. Residues, ends and D or L forms follow the SMILES beside them. Sar = CNCC(=O)O

MOLECULE: CN(CC(=O)O)C(=O)CN [GLYCYLSARCOSINE] (H-Gly-[Sar]-OH)
selectivity ratio: 2.9

====

EXPERIMENTAL_PROTOCOL: Protein binding in human at 50 to 500 mg, po bid
MEASUREMENT_CONDITIONS: plasma

MOLECULE: CCOC(=O)C1=C[C@@H](OC(CC)CC)[C@H](NC(C)=O)[C@@H](N)C1.O=P(O)(O)O [OSELTAMIVIR PHOSPHATE]
fraction unbound: 0.58

meta.source: ChEMBL document CHEMBL3526053
